The entries below are paired with their reported GI50.
system: UACC-257; assay: NCI tumour cell line growth inhibition, 48 h
The source made the active and inactive calls. Cut-off read from the data, not from the text of the source: active = GI50 up to about 1.1 µM and inactive = higher.

compound	GI50
CC(C(=O)OCc1ccccc1)N(Cc1ccccc1)Cc1ccccc1 (stereo not given)	33.7 µM (inactive)
CC(=O)O[C@@H](C1C[C@@H](C)[C@H]2[C@@](O)(O1)[C@H](O)[C@@]1(C)C3=CC[C@H]4C(C)(C)[C@@H](OC5OCC(O)C(O)C5O)CC[C@@]45C[C@@]35CC[C@]21C)C(C)(C)O (stereo not given in full)	19.7 µM (inactive)
CC1CCCN(CP(=O)(c2ccccc2)c2ccccc2)C1 (stereo not given)	> 100 µM (inactive)
O=C(CCC(=O)Nc1ccc(Cl)c(Cl)c1)CC(=O)c1ccc(Cl)cc1	> 100 µM (inactive)

Now look at this entry.
Q: Entry OC[C@H]1CCCC1O (stereo not given in full) : reported GI50 = ?
A: > 100 µM (inactive)

====

system: K562; experiment: NCI tumour cell line growth inhibition, 48 h
Calls of active or inactive are those of the source. Rule as the data show it: active = GI50 up to about 1.1 µM and inactive = higher.
Recorded GI50 values for a group of compounds are listed next.

Example entries begin here.
compound	GI50
COc1ccc2c(C)cc(C)nc2n1	> 100 µM (inactive)
O=C1CSC2(CC(/C=C/c3ccccc3)=NN2c2cccc(S(=O)(=O)O)c2)N1c1nc2ccccc2s1 (stereo not given)	35.1 µM (inactive)

Q: Please report the recorded GI50 for CN1CCN(CC(=O)N2c3ccccc3Sc3cc4ccccc4cc32)CC1 .
A: 15.9 µM (inactive)

Q: Give the measured GI50 of O=C1[C@H]2ON(c3ccccc3)C(c3ccc(Cl)cc3Cl)[C@H]2C(=O)N1c1ccc(Cc2ccc(N3C(=O)[C@@H]4ON(c5ccccc5)C(c5ccc(Cl)cc5Cl)[C@@H]4C3=O)cc2)cc1 (stereo not given in full) .
A: > 100 µM (inactive)

Q: Consider the compound shown here: NS(=O)(=O)c1ccc(Nc2c3ccccc3nc3c(C(=O)N4CCN(CCO)CC4)cccc23)cc1 What is its recorded GI50?
A: 53.2 µM (inactive)

====

system: SF-295; assay: NCI tumour cell line growth inhibition, 48 h
The source made the active and inactive calls. No stated cut-off is given here; in the data, active = GI50 up to about 1.1 µM and inactive = higher.
# GI50 per entry

Check out these entries, answers already filled in.
>>> df
                                   compound  readout_name      endpoint_result
0  COc1ccc(N2C=Nn3c(nc4sc5c(c4c3=O)CCCC5)C2)cc1          GI50   18.3 µM (inactive)
1                     N#CCCC(C#N)(C#N)CCC#N          GI50  > 100 µM (inactive)
2  COc1ccc(C2C(Cl)C(=O)N2NC(=O)Cc2ccccc2)cc1OC (stereo unspecified)          GI50  > 100 µM (inactive)
3  [O-][n+]1c(CN2CCCCC2)nc2cccc3c2c1-c1ccccc1-3          GI50   28.7 µM (inactive)
4   CCOC(=O)c1ccc(NC(=O)O/N=C(/Cl)C(C)C)cc1          GI50   19.1 µM (inactive)

Q: If you can, please state the reported GI50 value of O=C(NC(Cc1ccccc1)C(=O)CCl)OCc1ccccc1 (stereo unspecified) .
A: 14.1 µM (inactive)

====

system: LOX IMVI; assay: NCI tumour cell line growth inhibition, 48 h
Activity calls are given as the source filed them. No stated cut-off is given here; in the data, active = GI50 up to about 1.1 µM and inactive = higher.
readout_name: GI50

compound	GI50
O=c1c2cccnc2ncn1CCCN1CCCCC1	> 100 µM (inactive)

Q: Report GI50 for CC1OC(OC2C(CO)OC(O[C@H]3CC[C@@]4(C)C(=CC[C@H]5[C@@H]6C[C@@H]7O[C@](O)(CC[C@@H](C)COC8OC(CO)C(O)C(O)C8O)[C@@H](C)[C@@H]7[C@@]6(C)CC[C@@H]54)C3)C(OC3OC(C)C(O)C(O)C3O)C2O)C(O)C(O)C1O (some centres undefined) please.
A: 1.56 µM (inactive)

Q: GET /values?readout=GI50&item= O=[N+]([O-])O [NITRIC ACID]
A: > 100 µM (inactive)

Q: I have this compound here, CC(C)(C)c1cc(C(CO)OCCOCCO)cc(C(C)(C)C)c1O (centres undefined) , and I need its recorded GI50.
A: > 100 µM (inactive)

====

system: DU-145; test: NCI tumour cell line growth inhibition, 48 h
The source made the active and inactive calls. Rule as the data show it: active = GI50 up to about 1.1 µM and inactive = higher.
Please state which outcome applies, choosing from active, inactive

                                   molecule  label_class
0  c1ccc2c(c1)NC(C1OC3CCCN3C1C1Nc3ccccc3S1)S2 (stereo unspecified)     inactive
1  O=C(O)C(CO)NC(=O)C1C(C(=O)O)C(c2ccccc2[N+](=O)[O-])C=C(c2ccco2)N1c1ccncc1 (stereo unspecified)     inactive
2  O=C(CC(=O)Nc1cccc(C(=O)O)c1)Nc1cccc(C(=O)O)c1     inactive
3  CC(C)=CCC1=C(O)C(=O)c2ccccc2C1=O [LAPACHOL]     inactive
4    OCC1NCC(O)C(O)C1O (stereo unspecified)     inactive

Q: Hello, I am checking results. What call was entered for CC(C)NC(=O)OCC[S+]([O-])c1c(Cl)c(Cl)nn1C (stereo unspecified) ?
A: inactive

Q: In this assay, the call recorded for COc1cc(C2c3cc4c(cc3OC(N3CCCCC3)C2C)OCO4)cc(OC)c1O (stereo unspecified) was what?
A: inactive

Q: Lab log entry: CSc1ccc(Nc2cc(=O)[nH]c(=O)[nH]2)cc1 — outcome as called in the assay?
A: inactive

====

Item-by-item account of GI50
test system: Malme-3M; assay: NCI tumour cell line growth inhibition, 48 h
Active and inactive are the calls of the source. No stated cut-off is given here; in the data, active = GI50 up to about 1.1 µM and inactive = higher.

In [3]: df
Out[3]:
                                   molecule  readout_name      endpoint_result
0                  S=P(N1CCCC1)(N1CC1)N1CC1          GI50  > 100 µM (inactive)
1  COc1ccc(CNC2=Nc3ccncc3S(=O)(=O)N2c2ccccc2)cc1          GI50   49.9 µM (inactive)
2  CC(=O)OC1CC[C@@]2(C)C(=CC[C@@H]3[C@@H]2CC[C@]2(C)Nc4nn(S(C)(=O)=O)cc4C[C@@H]32)C1 (stereo partly drawn)          GI50   27.3 µM (inactive)

Q: Item under review: C=C(C)C(=O)OC1CC2(C)OC(=CC2=O)C(C)CC2OC(=O)C(=C)C12 (stereo not drawn) . Reported GI50?
A: 3.44 µM (inactive)

Q: What does the data say about its GI50? Entry: Nc1nc(O)c([N+](=O)[O-])c(NCCOCP(=O)(O)O)n1
A: > 100 µM (inactive)

====

Catalogue of GI50 readings, one per entry.
tested on: COLO 205; test: NCI tumour cell line growth inhibition, 48 h
The source made the active and inactive calls. Cut-off read from the data, not from the text of the source: active = GI50 up to about 1.1 µM and inactive = higher.

Before answering, review these 4 worked examples.
compound	GI50
CN1CCCC2(CCCc3ccccc32)C1 (stereo not given)	> 100 µM (inactive)
Oc1ccc(-c2nc3ccc(F)cc3s2)cc1	16.2 µM (inactive)
CC(C)OP(=O)(OC(C)C)C(C(F)(F)F)C(F)(F)F	> 100 µM (inactive)
COc1cc2c(cc1OC)[C@@H](C(O)c1ccccc1)NCC2 (stereo not given in full)	> 100 µM (inactive)

Q: Hello, I am looking for reported GI50 with COLO 205 for CCCCCCCCCC[C@@H](O)[C@@H]1CC[C@@H]([C@@H]2CC[C@@H]([C@@H](O)CCCCCCCCCCC(O)CC3=CC(C)OC3=O)O2)O1 (stereo not given in full) . Could you help?
A: > 10 µM (inactive)

====

test system: SK-MEL-28; test: NCI tumour cell line growth inhibition, 48 h
The source made the active and inactive calls. Rule as the data show it: active = GI50 up to about 1.1 µM and inactive = higher.
Parameter GI50: see the listing below.

Recorded GI50, per entry:
compound	study_system	GI50
CC(C)OP(=O)(OC(C)C)C(C(F)(F)F)C(F)(F)F	SK-MEL-28	> 100 µM (inactive)
CC(C)(C)c1cc(C(CO)OCCOCCO)cc(C(C)(C)C)c1O (centres undefined)	SK-MEL-28	> 100 µM (inactive)
Cc1csc(-c2cn(C)c3c2C(=O)C(=N)C=C3O)n1	SK-MEL-28	20.3 µM (inactive)
O=C1CSC2(CC(/C=C/c3ccccc3)=NN2c2cccc(S(=O)(=O)O)c2)N1c1nc2ccccc2s1 (centres undefined)	SK-MEL-28	62.4 µM (inactive)
CN(c1ccccc1)S(=O)(=O)c1ccc([N+](=O)[O-])cc1	SK-MEL-28	> 100 µM (inactive)

Kindly review the next compound as well.
Q: What measured GI50 goes with O=C1OC(=O)C2=C1C(c1cccs1)C=C(c1cccnc1)N2c1ccncc1 (centres undefined) ?
A: 24.3 µM (inactive)

====

system: OVCAR-5; test: NCI tumour cell line growth inhibition, 48 h
The source made the active and inactive calls. Rule as the data show it: active = GI50 up to about 1.1 µM and inactive = higher.
Quick list: GI50 per entry.

Completed entries (count: 4):
In [3]: df
Out[3]:
                                   compound      endpoint_result
0  O=C(/C=C/c1ccc(O)cc1)c1ccc(O)cc1 [4,4'-DIHYDROXYCHALCONE]   33.3 µM (inactive)
1  CCOC(C)O[C@H]1C(=O)OCC1(C)C (some centres not stated)  > 100 µM (inactive)
2  O=c1[nH]c(=O)n(C2CC(O)C(CO)O2)cc1COCC(F)(F)F (configuration not stated)  > 100 µM (inactive)
3  NC1CC=C(COC(=O)C(O)(c2ccccc2)C2CC2)CC1 (configuration not stated)  > 100 µM (inactive)

Q: State the recorded GI50 for this entry: COc1cc(CC2c3cc(OC)c(OC)cc3CCN2C)ccc1O (configuration not stated)
A: > 100 µM (inactive)

Q: I have this compound here, CCCCCCCCCCCCCCCCOCC(CN(C)CCN(C)C)OCCCCCCCCCCCCCCCC (configuration not stated) , and I need its recorded GI50.
A: > 100 µM (inactive)

Q: Any idea what its GI50 is? The compound is OCC1NCC(O)C(O)C1O (configuration not stated)
A: > 100 µM (inactive)

Q: Item under review: On1c(-c2ccccc2)nc2ccccc2c1=S . Reported GI50?
A: > 100 µM (inactive)

Q: Field request: GI50 | item: CN(C)CC1CC/C(=C\c2ccc(O)cc2)C1=O (configuration not stated)
A: 17.4 µM (inactive)

Q: Fill in the blank: the reported GI50 of O=C1c2ccccc2C(=O)c2c(NCC(O)CO)ccc(NCC(O)CO)c21 (configuration not stated) is ____.
A: > 100 µM (inactive)

Q: Given the entry CSc1c([S+](C)[O-])c2ccccc2n1C (configuration not stated) , report its measured GI50.
A: > 100 µM (inactive)

Q: Reported GI50, compound COC(=O)[C@]12CSC[C@H]1C[C@H](c1ccccc1OC)N2 : ____
A: > 100 µM (inactive)
